assay info: Solubility of compound A in dissolution test fluids and water
Assay type: physicochemical
run conditions: aqueous buffer; pH 6.8 phosphate buffer, USP; read-out: solubility at a neutral pH range

cpd smiles: NC(=O)c1cnc2[nH]ccc2c1N[C@@H]1[C@@H]2CC3C[C@H]1C[C@@](O)(C3)C2
solubility: ~11 µg/mL

###

assay info: Solubility of compound A in dissolution test fluids and water
Type: physicochemical
run conditions: water; read-out: solubility in water
assay endpoint: solubility

molecule: NC(=O)c1cnc2[nH]ccc2c1N[C@@H]1[C@@H]2CC3C[C@H]1C[C@@](O)(C3)C2 [compound A]
assay endpoint: solubility
reading: ~12.5 mg/mL

###

assay info: Solubility of compound A in dissolution test fluids and water
Format: physicochemical
run conditions: Japanese Pharmacopoeia, simulated gastric fluid; 1st fluid for dissolution test JP1 (pH 1.2); read-out: solubility at an acidic pH range

cpd smiles: NC(=O)c1cnc2[nH]ccc2c1N[C@@H]1[C@@H]2CC3C[C@H]1C[C@@](O)(C3)C2
solubility: ~8600 µg/mL
